- System: E. coli TESEC Mtb DapB
- Method Description: growth (OD600 after 10 h); higher = more growth (less inhibition)
- Condition: arabinose induction (level): High; compound 0.1 mM; raw OD600 reference: median of DMSO wells […], cell-free background 0.041
Where a name gives a salt, the structure may show the parent alone.
In this section, each of the compounds is paired with its reported growth.

{"Compound": "CCN(CCCc1ccccc1)CCCc1ccccc1 [Alverine citrate salt]", "growth": 0.153}
{"Compound": "CCCCCNC(=N)N/N=C/c1c[nH]c2ccc(OC)cc12 [Tegaserod maleate]", "growth": 0.0474}
{"Compound": "NS(=O)(=O)c1cc(C(=O)O)cc(N2CCCC2)c1Oc1ccccc1 [Piretanide]", "growth": 0.21}
{"Compound": "O=C1CN(/N=C/c2ccc([N+](=O)[O-])o2)C(=O)N1 [Nitrofurantoin]", "growth": 0.172}
{"Compound": "Cc1cc2c(cc1S(N)(=O)=O)S(=O)(=O)CCC2 [Meticrane]", "growth": 0.186}
{"Compound": "CN1CCC(=C2c3ccccc3CC(=O)c3sccc32)CC1 [Ketotifen fumarate]", "growth": 0.239}
{"Compound": "CC(NCCc1ccc(O)cc1)C(O)c1ccc(O)cc1 (stereo not drawn) [Ritodrine hydrochloride]", "growth": 0.179}
{"Compound": "C#C[C@]1(O)CC[C@H]2[C@@H]3[C@H](C)CC4=C(CCC(=O)C4)[C@H]3CC[C@@]21C [Tibolone]", "growth": 0.17}
{"Compound": "COc1ccc(C(=O)CC(=O)c2ccc(C(C)(C)C)cc2)cc1 [Avobenzone]", "growth": 0.202}
{"Compound": "CC(=O)Oc1ccccc1C(=O)Nc1ncc([N+](=O)[O-])s1 [Nitazoxanide]", "growth": 0.0545}
{"Compound": "NC(=O)NC1NC(=O)NC1=O (stereo not drawn) [Allantoin]", "growth": 0.192}
{"Compound": "CO[C@@]1(NC(=O)CSCC#N)C(=O)N2C(C(=O)O)=C(CSc3nnnn3C)CS[C@@H]21 [Cefmetazole sodium salt]", "growth": 0.0493}
{"Compound": "CCN(CC)CCCC(C)Nc1ccnc2cc(Cl)ccc12 (stereo not drawn) [Chloroquine diphosphate]", "growth": 0.201}
{"Compound": "CCc1nn(CCCN2CCN(c3cccc(Cl)c3)CC2)c(=O)n1CCOc1ccccc1 [Nefazodone HCl]", "growth": 0.0511}
{"Compound": "CC1(C)S[C@@H]2[C@H](NC(=O)Cc3ccccc3)C(=O)N2[C@H]1C(=O)O [Benzylpenicillin sodium]", "growth": 0.204}
{"Compound": "COc1ccc2cc([C@H](C)C(=O)O)ccc2c1 [Naproxen]", "growth": 0.18}
{"Compound": "CCn1cc(C(=O)O)c(=O)c2cc(F)c(N3CCNCC3)cc21 [Norfloxacin]", "growth": 0.0581}
{"Compound": "Clc1ccc2c(c1)CCc1cccnc1C2=C1CCNCC1 [Desloratadine]", "growth": 0.216}

* * *

- System: E. coli TESEC Mtb DapB
- Method Description: growth (OD600 after 10 h); higher = more growth (less inhibition)
- Condition: arabinose induction (level): High; compound 0.1 mM; raw OD600 reference: median of DMSO wells […], cell-free background 0.041
Counter-ions that a name gives are not always drawn.
Measured Property: growth

{"Molecule": "CC(C)[C@H](N)C(=O)OCCOCn1cnc2c(=O)nc(N)[nH]c21 [Valacyclovir hydrochloride]", "Recorded Result": 0.179}
{"Molecule": "CNc1ncnc2c1ncn2[C@@H]1O[C@H](CO)[C@@H](O)[C@H]1O", "Recorded Result": 0.21}
{"Molecule": "O=C(O)CCCC[C@@H]1SC[C@@H]2NC(=O)N[C@@H]21", "Recorded Result": 0.18}
{"Molecule": "C=CC[N@@+]12CC[C@@]34c5ccccc5N5/C=C6/[C@H]7C[C@H]8[C@@]9(CC[N@@+]8(CC=C)C/C7=C/CO)c7ccccc7N(/C=C(/[C@@H](C[C@@H]31)/C(=C\\CO)C2)[C@H]54)[C@@H]69 [Alcuronium chloride]", "Recorded Result": 0.197}

* * *

- Tested on: E. coli TESEC Alr+ wild-type control
- Method Description: growth (OD600 after 10 h); higher = more growth (less inhibition)
- Condition: compound 0.1 mM; raw OD600 reference: median of DMSO wells 0.49, cell-free background 0.052
Counter-ions that a name gives are not always drawn.

{"Compound": "CNCCCN1c2ccccc2CCc2ccccc21 [Desipramine hydrochloride]", "growth": 0.578}
{"Compound": "CCOC(=O)Nc1ccc2c(c1)N(C(=O)CCN1CCOCC1)c1ccccc1S2 [Moricizine hydrochloride]", "growth": 0.354}
{"Compound": "C[C@H](Cc1cc2c(c(C(N)=O)c1)N(CCCO)CC2)NCCOc1ccccc1OCC(F)(F)F", "growth": 0.442}
{"Compound": "Cc1ccc(S(=O)(=O)NC(=O)NN2CCCCCC2)cc1 [Tolazamide]", "growth": 0.482}
{"Compound": "CC(C)(C)NC(=O)[C@H]1CC[C@H]2[C@@H]3CC[C@H]4NC(=O)C=C[C@]4(C)[C@H]3CC[C@]12C [Finasteride]", "growth": 0.351}
{"Compound": "CC(C)(C)NC[C@H](O)COc1cccc2c1CCCC2=O [(-) -Levobunolol hydrochloride]", "growth": 0.613}
{"Compound": "O=C(N[C@H](CO)[C@H](O)c1ccc([N+](=O)[O-])cc1)C(Cl)Cl", "growth": 0.0505}
{"Compound": "Cc1ncc([N+](=O)[O-])n1CCO", "growth": 0.426}
{"Compound": "COc1c2occc2c(OC)c2c(=O)cc(C)oc12", "growth": 0.418}
{"Compound": "COc1cc(C(=O)NCc2ccc(OCCN(C)C)cc2)cc(OC)c1OC [Trimethobenzamide hydrochloride]", "growth": 0.464}
{"Compound": "Cn1c(=O)c2c(ncn2CCO)n(C)c1=O", "growth": 0.509}
{"Compound": "Nc1ccc(S(=O)(=O)Nc2ccc(Cl)nn2)cc1", "growth": 0.425}
{"Compound": "Clc1ccc2c(c1)CCc1cccnc1C2=C1CCNCC1", "growth": 0.545}
{"Compound": "CN1CCCC(CC2c3ccccc3Sc3ccccc32)C1 (stereo not given) [Metixene hydrochloride]", "growth": 0.0609}
{"Compound": "COc1ccccc1N1CCN(CC(O)COc2cccc3ccccc23)CC1 (stereo not given) [Naftopidil dihydrochloride]", "growth": 0.0532}
{"Compound": "CC1c2cccc(O)c2C(O)=C2C(=O)C3(O)C(O)=C(C(N)=O)C(=O)C(N(C)C)C3C(O)C21 (stereo not given) [Doxycycline hydrochloride]", "growth": 0.0579}
{"Compound": "Clc1cccc(Cl)c1NC1=NCCN1 [Clonidine hydrochloride]", "growth": 0.462}
{"Compound": "N=C(N)N1CCc2ccccc2C1 [Debrisoquin sulfate]", "growth": 0.567}
{"Compound": "CN/C(=N\\CCSCc1nc[nH]c1C)NC#N", "growth": 0.545}
{"Compound": "OCCN1CCN(CCCN2c3ccccc3C=Cc3ccccc32)CC1 [Opipramol dihydrochloride]", "growth": 0.464}
{"Compound": "OC(CCN1CCCCC1)(c1ccccc1)c1ccccc1 [Pridinol methanesulfonate salt]", "growth": 0.469}
{"Compound": "CC(C(=O)O)c1ccc2c(c1)Cc1cccnc1O2 (stereo not given)", "growth": 0.44}
{"Compound": "N/C(=N\\C(=O)c1nc(Cl)c(N)nc1N)NCc1ccccc1 [Benzamil hydrochloride]", "growth": 0.502}
{"Compound": "CCN[C@H]1CN(CCCOC)S(=O)(=O)c2sc(S(N)(=O)=O)cc21 [Brinzolamide]", "growth": 0.579}
{"Compound": "C[C@@H]1C[C@H]2[C@@H]3C[C@H](F)C4=CC(=O)C=C[C@]4(C)[C@@]3(Cl)[C@@H](O)C[C@]2(C)[C@H]1C(=O)COC(=O)C(C)(C)C [Clocortolone pivalate]", "growth": 0.477}
{"Compound": "N[C@@H]1CONC1=O", "growth": 0.399}
{"Compound": "CCOc1ccc(NC(C)=O)cc1", "growth": 0.506}
{"Compound": "CN(C)CCCC1(c2ccc(F)cc2)OCc2cc(C#N)ccc21 (stereo not given) [Citalopram Hydrobromide]", "growth": 0.476}
{"Compound": "CC(C)(C)NC[C@H](O)COc1ccccc1C1CCCC1 [Penbutolol sulfate]", "growth": 0.429}
{"Compound": "CCOc1nc2cccc(C(=O)O)c2n1Cc1ccc(-c2ccccc2-c2nnn[nH]2)cc1", "growth": 0.642}
{"Compound": "N#Cc1cc(NC(=O)C(=O)O)c(Cl)c(NC(=O)C(=O)O)c1 [Lodoxamide]", "growth": 0.579}
{"Compound": "CC(C)(C)NC[C@H](O)COc1nsnc1N1CCOCC1 [Timolol maleate salt]", "growth": 0.51}
{"Compound": "CC(=O)Nc1ccc(OCC(O)CNC(C)C)cc1 (stereo not given)", "growth": 0.643}
{"Compound": "Cc1ccc(N(CC2=NCCN2)c2cccc(O)c2)cc1 [Phentolamine hydrochloride]", "growth": 0.452}
{"Compound": "C=C1/C(=C\\C=C2/CCC[C@]3(C)[C@@H]([C@H](C)/C=C/[C@@H](O)C4CC4)CC[C@@H]23)C[C@@H](O)C[C@@H]1O", "growth": 0.0607}
